Target: T1, recombinant human CTLA4-his protein (Acro biosystems, Cat#CT4-H5229) (human, UniProt P16410 37-162)
T1 construct: bought recombinant protein; not shown: his tag
T1 sequence (looked up): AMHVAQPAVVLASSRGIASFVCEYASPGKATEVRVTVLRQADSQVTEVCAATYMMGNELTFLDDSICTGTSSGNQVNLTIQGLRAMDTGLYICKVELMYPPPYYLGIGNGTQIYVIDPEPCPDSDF
Test: BLI, Octet; antibody from cell supernatant on AHC sensor, CTLA4-his as analyte
ASSAY_METRIC: koff (s⁻¹)
Give the number; s⁻¹ is assumed, so skip it.

huC1D1-V10 (antibody, human IgG4 S228P, kappa, V domains shown, humanized IgG4/kappa; tested as 293F cell supernatant on Octet; also called hu CTLA4 C1D1-V10) VH: EVQLVESGGGLVQPGRSLRLSCTASGFTFSDNWMNWVRQAPGKGLEWVAQIRNKPYNYETYYSDSVKGRFTISRDDSKSIAYLQMNSLKTEDTAVYYCTGGMDYWGQGTTVTVSS VL: DIQMTQSPSSLSASVGDRVTITCGASEIIYGALNWYQQKPGKVPKLLIYGATNLADGVPSRFSGSGSGTDFTLTISSLQPEDVATYYCQKILSPPPWTFGGGTKVEIKR	0.000304
huC1D1-V2 (antibody, human IgG4 S228P, kappa, V domains shown, humanized IgG4/kappa; tested as 293F cell supernatant on Octet; also called hu CTLA4 C1D1-V2) VH: EVQLVESGGGLVQPGRSLRLSCTASGFTFSDNWMNWVRQAPGKGLEWVAQIRNKPYNYETYYSDSVKGRFTISRDDSKSIAYLQMNSLKTEDTAVYYCTGGMDYWGQGTTVTVSS VL: DIQMTQSPSSLSASVGDRVTITCGASEIIYGALNWYQQKPGKSPKLLIYGATNLADGMPSRFSGSGSGRDYTLTISSLQPEDVATYYCQKILSPPPWTFGGGTKVEIKR	0.000149

Would you kindly look at the next entry?
For the binder huC1D1-V11 (antibody, human IgG4 S228P, kappa, V domains shown, humanized IgG4/kappa; tested as 293F cell supernatant on Octet; also called hu CTLA4 C1D1-V11) VH: EVQLVESGGGLVQPGRSLRLSCTASGFTFSDNWMNWVRQAPGKGLEWVGQIRNKPYNYETYYSDSVKGRFTISRDDSKSIVYLQMNSLKTEDTAVYYCTGGMDYWGQGTTVTVSS VL: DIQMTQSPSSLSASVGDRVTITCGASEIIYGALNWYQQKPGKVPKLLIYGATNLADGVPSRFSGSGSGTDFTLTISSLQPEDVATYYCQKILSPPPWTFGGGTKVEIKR , what koff is on record?
0.000457
